Each recorded value in this set is attributed to patent US10836743B2.

protocol.summary: Pharmacokinetic experiment in mouse
measurement.conditions: plasma, po
Assignment: determine reported MRT inf for the given compounds.
One number for each entry, in h.

// worked examples, MRT inf included
compound: O=C(OCC1CCNCC1)N1CCC(F)(CN[C@@H]2C[C@H]2c2ccccc2)CC1 [(1R,2S)-A43]
MRT inf / h: 3.65
--
compound: N[C@H]1CC[C@](F)(CNC2CC2c2ccccc2)CC1 (stereo partly shown) [Example A4]
MRT inf / h: 7.19
--
compound: O=C(OCC1CCN(Cc2ccccc2)CC1)N1CCC(F)(CN[C@@H]2C[C@H]2c2ccccc2)CC1 [(1R,2S)-A90]
MRT inf / h: 5.46

State the recorded MRT inf for every item in the following list.
1. O=C(OCC1CCNCC1)N1CCC(F)(CN[C@@H]2C[C@H]2c2ccccc2)CC1 (relative stereo) [Example A43]
2. FC1(CN[C@@H]2C[C@H]2c2ccccc2)CCNCC1 (relative stereo) [Example A2]
3. O=C(OCc1ccccc1)N1CCC(F)(CNC2CC2c2ccccc2)CC1 (stereo not shown) [Example A1]
4. O=C(OCC1CCN(Cc2ccccc2)CC1)N1CCC(F)(CN[C@@H]2C[C@H]2c2ccccc2)CC1 (relative stereo) [Example A90]

1. 1.54
2. 2.78
3. 10.2
4. 2.52

---

protocol.summary: Pharmacokinetic experiment in mouse
measurement.conditions: plasma, po
# strict inequality: AUC(0-t) < 2000 ng·h/mL yields Yes, everything else yields No

Input O=C(OCC1CCN(Cc2ccccc2)CC1)N1CCC(F)(CN[C@@H]2C[C@H]2c2ccccc2)CC1 [(1R,2S)-A90] ; condition: AUC(0-t) strictly below 2000 ng·h/mL. Does it hold?
No

---

assay.target: Human recombinant LSD1 (Homo sapiens (Human), UniProt O60341)
measured.quantity: IC50 (µM)
One number for each entry, in µM.

Item O=C(O)c1ccc(CN2CCC(CN[C@@H]3C[C@H]3c3ccccc3)CC2)cc1 ; assay system Human recombinant LSD1 (Homo sapiens (Human), UniProt O60341); IC50 reported as 1.22

---

protocol.summary: Pharmacokinetic experiment in mouse
measurement.conditions: plasma, po
measured.quantity: Tmax (min)
Numbers only, in min.

// worked examples, Tmax included
compound: O=C(OCc1ccccc1)N1CCC(F)(CNC2CC2c2ccccc2)CC1 (stereo not shown)
Tmax (min): 4.98
//
compound: O=C(OCC1CCN(Cc2ccccc2)CC1)N1CCC(F)(CN[C@@H]2C[C@H]2c2ccccc2)CC1 [(1R,2S)-A90]
Tmax (min): 15
//
compound: N[C@H]1CC[C@](F)(CNC2CC2c2ccccc2)CC1 (stereo partly shown)
Tmax (min): 15
//
compound: O=C(OCC1CCNCC1)N1CCC(F)(CN[C@@H]2C[C@H]2c2ccccc2)CC1 [(1R,2S)-A43]
Tmax (min): 15
//
compound: O=C(OCC1CCNCC1)N1CCC(F)(CN[C@@H]2C[C@H]2c2ccccc2)CC1 (relative stereo) [Example A43]
Tmax (min): 15
//
compound: O=C(OCC1CCN(Cc2ccccc2)CC1)N1CCC(F)(CN[C@@H]2C[C@H]2c2ccccc2)CC1 (relative stereo) [Example A90]
Tmax (min): 10

Pending compound:
get_value(item= FC1(CN[C@@H]2C[C@H]2c2ccccc2)CCNCC1 (relative stereo) , readout=Tmax) returns 10

---

protocol.summary: Pharmacokinetic experiment in mouse
measurement.conditions: plasma, po
measured.quantity: bioavailability (%)
Answers are plain numbers, in %.

// worked examples, bioavailability included
molecule: O=C(OCC1CCNCC1)N1CCC(F)(CN[C@@H]2C[C@H]2c2ccccc2)CC1 (relative stereo) [Example A43]
quantitative.result: 70

molecule: O=C(OCC1CCN(Cc2ccccc2)CC1)N1CCC(F)(CN[C@@H]2C[C@H]2c2ccccc2)CC1 [(1R,2S)-A90]
quantitative.result: 74.8

molecule: O=C(OCc1ccccc1)N1CCC(F)(CNC2CC2c2ccccc2)CC1 (stereo not shown) [Example A1]
quantitative.result: 43.7

State the recorded bioavailability for every item in the following list.
1. FC1(CN[C@@H]2C[C@H]2c2ccccc2)CCNCC1 (relative stereo) [Example A2]
2. O=C(OCC1CCN(Cc2ccccc2)CC1)N1CCC(F)(CN[C@@H]2C[C@H]2c2ccccc2)CC1 (relative stereo) [Example A90]
3. O=C(OCC1CCNCC1)N1CCC(F)(CN[C@@H]2C[C@H]2c2ccccc2)CC1 [(1R,2S)-A43]

23.5
95.3
74.4

get_value(item= N[C@H]1CC[C@](F)(CNC2CC2c2ccccc2)CC1 (stereo partly shown) [Example A4] , readout=bioavailability) returns 73
